Target: Phosphatidylinositol 4,5-bisphosphate 3-kinase catalytic subunit gamma isoform (Homo sapiens, UniProt P48736)
Sequence (P48736 whole entry, canonical isoform): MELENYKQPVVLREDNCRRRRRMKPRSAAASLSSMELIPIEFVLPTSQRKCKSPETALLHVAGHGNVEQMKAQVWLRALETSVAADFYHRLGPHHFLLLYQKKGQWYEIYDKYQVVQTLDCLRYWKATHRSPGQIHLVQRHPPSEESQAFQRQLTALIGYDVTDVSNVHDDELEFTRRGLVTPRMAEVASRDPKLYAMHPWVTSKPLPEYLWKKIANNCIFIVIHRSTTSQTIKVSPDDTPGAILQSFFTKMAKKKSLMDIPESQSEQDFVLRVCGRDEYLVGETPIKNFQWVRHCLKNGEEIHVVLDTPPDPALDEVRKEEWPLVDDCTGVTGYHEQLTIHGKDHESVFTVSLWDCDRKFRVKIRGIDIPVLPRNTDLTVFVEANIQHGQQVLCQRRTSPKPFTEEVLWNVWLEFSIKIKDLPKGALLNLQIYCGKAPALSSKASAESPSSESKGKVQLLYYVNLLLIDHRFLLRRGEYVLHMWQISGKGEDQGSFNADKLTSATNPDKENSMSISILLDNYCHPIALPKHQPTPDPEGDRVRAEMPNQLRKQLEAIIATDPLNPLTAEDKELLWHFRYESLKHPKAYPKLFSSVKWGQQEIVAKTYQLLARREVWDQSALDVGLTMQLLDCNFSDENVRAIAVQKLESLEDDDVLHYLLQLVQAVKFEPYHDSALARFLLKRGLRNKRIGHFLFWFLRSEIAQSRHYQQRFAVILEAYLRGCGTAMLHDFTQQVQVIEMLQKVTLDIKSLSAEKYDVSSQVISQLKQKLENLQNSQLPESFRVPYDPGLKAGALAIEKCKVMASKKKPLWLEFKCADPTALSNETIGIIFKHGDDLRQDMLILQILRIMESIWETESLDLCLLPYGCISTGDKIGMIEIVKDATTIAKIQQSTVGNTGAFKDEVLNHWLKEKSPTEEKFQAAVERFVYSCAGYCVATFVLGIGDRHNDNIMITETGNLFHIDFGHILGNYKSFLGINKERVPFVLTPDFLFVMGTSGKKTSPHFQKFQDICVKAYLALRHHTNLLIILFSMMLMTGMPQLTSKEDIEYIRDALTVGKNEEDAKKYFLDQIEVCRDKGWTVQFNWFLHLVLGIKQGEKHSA
Test: Inhibition of PI3Kgamma (unknown origin) using L-alpha-phosphatidylinositol as substrate incubated for 120 mins in presence of ATP by Kinase Glo luminescence assay
recorded endpoint: pIC50
pIC50 (log units): -log10 of the concentration in mol/L.

Prompt: Provide only the value of recorded pIC50 for "Cc1nc2cnc3ccc(-c4cnc5[nH]ccc5c4)cc3c2n1-c1ccc(C(C)(C)C#N)nc1"
Response: 8.30

* * *

Assay: Volume of distribution at steady state in Sprague-Dawley rat at 1 mg/kg, iv measured for 24 hrs by LC-MS/MS analysis
Assay type: ADME, organism-based
Details: in vivo, read-out: Vdss
recorded endpoint: Vd (L/kg)
Lab book: enter the figure in L/kg, no units written.

Prompt: Look up Vd of "Cc1nc2cnc3ccc(-c4cnc5[nH]ccc5c4)cc3c2n1-c1ccc(C(C)(C)C#N)nc1" and report it.
Response: 1.53
